Ref: patent US5807889A

- TARGET OF ASSAY: 5-HT1A receptors (Rattus norvegicus, UniProt P19327)
- Sequence (P19327 whole entry): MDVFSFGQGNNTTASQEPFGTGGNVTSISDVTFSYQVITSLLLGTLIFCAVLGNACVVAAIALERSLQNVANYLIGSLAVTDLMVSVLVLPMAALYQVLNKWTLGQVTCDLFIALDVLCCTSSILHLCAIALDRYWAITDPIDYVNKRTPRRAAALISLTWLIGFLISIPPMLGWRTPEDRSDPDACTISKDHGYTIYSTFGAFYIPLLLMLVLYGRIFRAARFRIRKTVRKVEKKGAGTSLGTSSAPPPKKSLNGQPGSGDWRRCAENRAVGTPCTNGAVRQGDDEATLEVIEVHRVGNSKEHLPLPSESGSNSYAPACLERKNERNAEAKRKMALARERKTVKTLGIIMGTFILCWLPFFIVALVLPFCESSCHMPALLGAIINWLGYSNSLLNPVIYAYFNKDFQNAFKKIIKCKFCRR
- METHOD DESCRIPTION: Inhibition of 3H-8-OH-DPAT binding to serotonin 5-HT1A receptors in rat brain in vitro
- Parameters: 5-HT1A receptors in membranes from rat brain minus cerebellum; from tissue; host or cells: brain minus cerebellum of male Wistar (Mol:Wist) rats, crude membranes; species or system rat (male Wistar)
- CONDITION SUMMARY: 3H 8-OH DPAT binding IC50, 1 nM 3H-8-OH-DPAT, rat brain minus cerebellum membranes, 37° C., 15 min
PROPERTY MEASURED: IC50 (nM)

Field: example entries. Status: answers known.
COMPOUND: CC(=O)Nc1ccc2c(c1)C(CN(C)CCCCC1CCCCC1)CC2 (centres unmarked) [Compound 13a]
IC50, nM: 1.4
//
COMPOUND: CC(=O)Nc1ccc2c(c1)C(CN1CCCCC1)CC2 (single isomer, unassigned; (+)) [Compound 8f]
IC50, nM: 15
//
COMPOUND: CCCCCCCCCNC(=O)Nc1ccc2c(c1)C(CN(CCC)CCC)CC2 (centres unmarked)
IC50, nM: 170
//
COMPOUND: CNCC1CCc2ccc(NC(C)=O)cc21 (centres unmarked) [Compound 12a]
IC50, nM: 25
//
COMPOUND: CC(=O)Nc1ccc2c(c1)C(CN(C)C)CC2 (centres unmarked)
IC50, nM: 25
//
COMPOUND: CCCN(CCC)CC1CCc2ccc(NC(N)=O)cc21 (centres unmarked)
IC50, nM: 0.56

[P] CCCN(CCC)CC1CCc2ccc(NC(=O)Nc3ccccc3)cc21 (centres unmarked)
[Q] CCCN(CCC)CC1CCc2cc(Cl)c(NC(C)=O)cc21 (centres unmarked) [Compound 11a]
Lower value of IC50 belongs to which: P or Q ? Pick one; state its label.
Q
(Q: 21 nM, P: 80 nM)

[P] CCCN(CCC)CC1CCc2ccc(NS(C)(=O)=O)c(Cl)c21 (centres unmarked)
[Q] CN(C)CC1CCc2ccc(NC=O)cc21 (single isomer, unassigned; (-)) [Compound 10g]
[R] CC(=O)Nc1ccc2c(c1)C(CN1CCCCC1)CC2 (centres unmarked) [Compound 5c]
Please list these compounds in decreasing order of IC50. # output: labels, in the requested order
P, Q, R

[A] O=CNc1ccc2c(c1)C(CN1CCCC1)CC2 (centres unmarked)
[B] CC(=O)Nc1ccc2c(c1)C(CN1CCCCC1)CC2 (single isomer, unassigned; (-)) [Compound 8e]
Lower value of IC50 belongs to which: A or B ? Pick one; state its label.
B
(B: 6.7 nM, A: 19 nM)

[A] CC(=O)Nc1ccc2c(c1)C(CN(C)CCCCc1c[nH]c3ccccc13)CC2 (centres unmarked) [Compound 13c]
[B] CCCN(CCC)CC1CCc2cc(Br)c(NC(C)=O)cc21 (centres unmarked) [Compound 11d]
Larger number for IC50: A , or B ? Pick one; state its label.
B
(B: 120 nM, A: 1.5 nM)

[1] CC(=O)Nc1ccc2c(c1)C(CN(C)CCCCN1CCN(c3ccc(F)cc3)C1=O)CC2 (centres unmarked) [Compound 13h]
[2] CN(C)CC1CCc2ccc(NC=O)cc21 (single isomer, unassigned; (+)) [Compound 10h]
Lower value of IC50 belongs to which: 1 or 2 ? Pick one; state its label.
1

[A] CCCN(CCC)CC1CCc2ccc(NC(C)=O)c(Cl)c21 (centres unmarked)
[B] CC(=O)Nc1ccc2c(c1)C(CN(C)CCCCN1CCNC1=O)CC2 (centres unmarked) [Compound 13k]
Larger number for IC50: A , or B ? Pick one; state its label.
B

[A] CCCN(CCC)CC1CCc2ccc(NC(=O)Nc3ccc(F)cc3)cc21 (single isomer, unassigned; (-)) [Compound 10e]
[B] CCCN(CCC)CC1CCc2ccc(NC(C)=O)cc21 (centres unmarked) [Compound 2a]
[C] CCCN(CCC)CC1CCc2ccc(NC=O)cc21 (single isomer, unassigned; (+)) [Compound 10b]
[D] CCCN(CCC)CC1CCc2ccc(NC(=O)N(C)C)cc21 (single isomer, unassigned; (+)) [Compound 10d]
Please list these compounds in decreasing order of IC50. # output: labels, in the requested order
A, D, C, B

[A] CCCN(CCC)CC1CCc2ccc(NC(=O)c3ccc(F)cc3)cc21 (centres unmarked)
[B] CN(C)CC1CCc2ccc(NC=O)cc21 (centres unmarked) [Compound 1b]
Larger number for IC50: A , or B ? Pick one; state its label.
B
